molecular target: T1, human c-Met ECD-Fc-Flis (human); assay: HGF-blocking ELISA: HGF signal on coated c-Met ECD-Fc-Flis; Ab 122.07 ng/mL
T1 construct: c-Met ECD fused to Fc with flag- and His-tag at the C-terminus; also called human c-Met extracellular domain (ECD)-Fc-Flis fusion; human c-Met-Flis-Fc ECD
T1 sequence (chain, as listed by the source): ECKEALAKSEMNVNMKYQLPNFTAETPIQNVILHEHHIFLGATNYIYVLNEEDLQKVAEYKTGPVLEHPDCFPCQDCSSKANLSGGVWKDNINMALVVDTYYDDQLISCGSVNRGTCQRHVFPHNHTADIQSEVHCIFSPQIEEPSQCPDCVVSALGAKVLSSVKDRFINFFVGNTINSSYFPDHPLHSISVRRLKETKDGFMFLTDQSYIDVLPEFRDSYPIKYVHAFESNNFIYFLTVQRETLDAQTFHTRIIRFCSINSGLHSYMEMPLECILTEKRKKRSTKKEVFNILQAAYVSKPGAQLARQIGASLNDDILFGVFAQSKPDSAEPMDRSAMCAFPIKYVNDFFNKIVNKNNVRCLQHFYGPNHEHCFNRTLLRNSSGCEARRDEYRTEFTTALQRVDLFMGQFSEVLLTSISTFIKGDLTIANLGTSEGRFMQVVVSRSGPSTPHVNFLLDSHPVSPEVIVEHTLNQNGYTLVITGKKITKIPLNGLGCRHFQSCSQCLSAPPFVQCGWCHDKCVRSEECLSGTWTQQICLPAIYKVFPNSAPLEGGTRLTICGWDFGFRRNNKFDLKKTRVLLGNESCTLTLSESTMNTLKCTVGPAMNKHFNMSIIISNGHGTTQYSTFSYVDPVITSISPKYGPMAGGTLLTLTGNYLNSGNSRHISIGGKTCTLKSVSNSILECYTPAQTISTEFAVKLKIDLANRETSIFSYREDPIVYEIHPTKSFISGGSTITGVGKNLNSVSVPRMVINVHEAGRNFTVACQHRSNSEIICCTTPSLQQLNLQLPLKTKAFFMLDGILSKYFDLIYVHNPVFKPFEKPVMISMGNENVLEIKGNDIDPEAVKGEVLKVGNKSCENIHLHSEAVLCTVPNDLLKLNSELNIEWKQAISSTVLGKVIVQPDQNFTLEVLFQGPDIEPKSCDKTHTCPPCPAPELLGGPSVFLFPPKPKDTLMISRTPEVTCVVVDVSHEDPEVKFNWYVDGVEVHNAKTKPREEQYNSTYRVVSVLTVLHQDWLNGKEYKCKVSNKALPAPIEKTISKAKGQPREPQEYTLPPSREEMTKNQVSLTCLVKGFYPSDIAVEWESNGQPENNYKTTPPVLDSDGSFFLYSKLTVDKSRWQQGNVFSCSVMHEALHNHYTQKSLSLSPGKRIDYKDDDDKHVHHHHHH

binder | AVG A450 nm
D11-8B8 (antibody, human IgG2, kappa, V domains shown, Human engineered IgG2 kappa c-Met antibody; also called Mab D11-8B8; D11-8B8 IgG2) VH: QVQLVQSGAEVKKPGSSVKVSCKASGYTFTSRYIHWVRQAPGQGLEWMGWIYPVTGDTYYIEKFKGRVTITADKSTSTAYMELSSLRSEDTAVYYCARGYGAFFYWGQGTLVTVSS VL: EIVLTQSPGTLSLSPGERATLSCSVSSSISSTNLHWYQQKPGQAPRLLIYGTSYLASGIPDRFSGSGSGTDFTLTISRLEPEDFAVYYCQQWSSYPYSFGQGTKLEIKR | 1.92 A450 nm
C8-6 (antibody, human IgG2, kappa, V domains shown, Named IgG4 kappa; also called C8-6 IgG4) VH: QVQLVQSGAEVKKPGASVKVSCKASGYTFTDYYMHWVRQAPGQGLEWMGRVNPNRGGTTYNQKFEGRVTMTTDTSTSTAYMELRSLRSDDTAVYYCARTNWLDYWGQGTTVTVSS VL: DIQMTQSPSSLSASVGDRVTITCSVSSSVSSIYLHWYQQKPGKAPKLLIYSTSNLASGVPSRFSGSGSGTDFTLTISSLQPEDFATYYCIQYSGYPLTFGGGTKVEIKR | 2 A450 nm

Sourced from patent US20100129369A1
